target: BTK (Homo sapiens)
IC50 reference
MEASURE: IC50

COMPOUND: CS(=O)(=O)c1cccc(NCC(=O)NC2CCCN(c3ncnc4[nH]ccc34)C2)c1 (stereo not shown)
MEASURE: IC50
VALUE_OBSERVED: 1000 to 10000 nM
--
COMPOUND: CC[C@@H](Nc1cc(F)cc(Cl)c1)C(=O)N[C@@H]1CCCN(c2ncnc3[nH]ccc23)C1
MEASURE: IC50
VALUE_OBSERVED: < 100 nM
--
COMPOUND: O=C(O)Cc1cccc(NCC(=O)N[C@@H]2CCCN(c3ncnc4[nH]ccc34)C2)c1
MEASURE: IC50
VALUE_OBSERVED: 1000 to 10000 nM
--
COMPOUND: CNc1cc(N2CCC[C@@H](NC(=O)CNc3cc(Cl)cc(Cl)c3)C2)ncn1
MEASURE: IC50
VALUE_OBSERVED: 100 to 999 nM

###

target: BTK (Homo sapiens, UniProt Q06187)
Sequence (Q06187 whole entry): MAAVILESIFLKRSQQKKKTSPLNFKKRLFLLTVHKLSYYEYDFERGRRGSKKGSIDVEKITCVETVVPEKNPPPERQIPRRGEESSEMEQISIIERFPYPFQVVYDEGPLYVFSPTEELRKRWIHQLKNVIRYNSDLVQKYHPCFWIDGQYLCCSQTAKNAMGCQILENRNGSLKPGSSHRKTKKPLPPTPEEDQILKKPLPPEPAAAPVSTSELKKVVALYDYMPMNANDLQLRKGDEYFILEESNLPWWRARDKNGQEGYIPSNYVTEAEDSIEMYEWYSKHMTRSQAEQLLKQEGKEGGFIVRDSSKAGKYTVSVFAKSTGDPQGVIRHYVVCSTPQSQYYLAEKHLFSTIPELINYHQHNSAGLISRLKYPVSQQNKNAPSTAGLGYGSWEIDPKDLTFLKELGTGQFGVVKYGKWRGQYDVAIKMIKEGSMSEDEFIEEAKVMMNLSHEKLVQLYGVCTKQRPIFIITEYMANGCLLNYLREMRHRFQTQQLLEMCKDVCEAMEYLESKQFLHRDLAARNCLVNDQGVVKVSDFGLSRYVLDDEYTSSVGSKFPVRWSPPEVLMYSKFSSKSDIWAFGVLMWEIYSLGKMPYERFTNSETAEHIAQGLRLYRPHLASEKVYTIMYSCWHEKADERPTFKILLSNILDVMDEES
MEASURE: IC50

COMPOUND: CC(C)Oc1cccc(NCC(=O)N[C@@H]2CCCN(c3ncnc4[nH]ccc34)C2)c1
VALUE_OBSERVED: 0.1 to 0.999 µM
--
COMPOUND: CCC[C@@H](Nc1ccccc1C(C)C)C(=O)N[C@@H]1CCCN(c2ncnc3[nH]ncc23)C1
VALUE_OBSERVED: 0.1 to 0.999 µM
--
COMPOUND: O=C(CNc1ccccc1Sc1ccccc1)N[C@@H]1CCCN(c2ncnc3[nH]ccc23)C1
VALUE_OBSERVED: < 0.1 µM
--
COMPOUND: O=C(CNc1ccc(Cl)cc1)NC1CCCN(c2ncnc3[nH]ccc23)C1 (stereo not drawn)
VALUE_OBSERVED: 0.1 to 0.999 µM
--
COMPOUND: O=C(CNc1ccccc1S(=O)(=O)N1CCC(C(F)(F)F)CC1)N[C@@H]1CCCN(c2ncnc3[nH]ncc23)C1
VALUE_OBSERVED: < 0.1 µM
--
COMPOUND: O=C(N[C@@H]1CCCN(c2ncnc3[nH]cc(F)c23)C1)[C@H](Nc1cc(Cl)cc(Cl)c1)C1CC1
VALUE_OBSERVED: 1 to 10 µM
--
COMPOUND: O=C(CNc1cccc2c1OCCO2)NC1CCCN(c2ncnc3[nH]ccc23)C1 (stereo not drawn)
VALUE_OBSERVED: > 10 µM
--
COMPOUND: O=C(CNc1cccnc1)NC1CCCN(c2ncnc3[nH]ccc23)C1 (stereo not drawn)
VALUE_OBSERVED: > 10 µM
--
COMPOUND: O=C(N[C@@H]1CCCN(c2ncnc3[nH]ccc23)C1)[C@H](Nc1cc(F)cc(F)c1)C1CC1
VALUE_OBSERVED: < 0.1 µM
--
COMPOUND: CC(C)(C)c1cccc(NCC(=O)N[C@@H]2CCCN(c3ncnc4[nH]ccc34)C2)c1
VALUE_OBSERVED: 0.1 to 0.999 µM
--
COMPOUND: O=C(CNc1cccc2ccccc12)NC1CCCN(c2ncnc3[nH]ccc23)C1 (stereo not drawn)
VALUE_OBSERVED: < 0.1 µM
--
COMPOUND: CCc1cccc(NCC(=O)N[C@@H]2CCCN(c3ncnc4[nH]ccc34)C2)c1
VALUE_OBSERVED: < 0.1 µM
--
COMPOUND: O=C(CNC1CCCCC1)NC1CCCN(c2ncnc3[nH]ccc23)C1 (stereo not drawn)
VALUE_OBSERVED: > 10 µM
--
COMPOUND: O=C(CNc1ccccc1C(=O)N1CCCCC1)N[C@@H]1CCCN(c2ncnc3[nH]ccc23)C1
VALUE_OBSERVED: 0.1 to 0.999 µM
--
COMPOUND: O=C(N[C@@H]1CCCN(c2ncnc3[nH]ccc23)C1)[C@H](Nc1cccc(Cl)c1)C1CC1
VALUE_OBSERVED: < 0.1 µM
--
COMPOUND: O=C(CNc1cccc2cnccc12)NC1CCCN(c2ncnc3[nH]ccc23)C1 (stereo not drawn)
VALUE_OBSERVED: 1 to 10 µM
--
COMPOUND: O=C(CNc1ccccc1Oc1ccccc1)N[C@@H]1CCCN(c2ncnc3[nH]ncc23)C1
VALUE_OBSERVED: < 0.1 µM
--
COMPOUND: O=C(CNc1cccc(-n2cccc2)c1)N[C@@H]1CCCN(c2ncnc3[nH]ccc23)C1
VALUE_OBSERVED: 0.1 to 0.999 µM
--
COMPOUND: C[C@@H](O)[C@@H](Nc1cc(F)cc(Cl)c1)C(=O)N[C@@H]1CCCN(c2ncnc3[nH]ccc23)C1
VALUE_OBSERVED: 0.1 to 0.999 µM
--
COMPOUND: O=C(CNc1cccc([N+](=O)[O-])c1)N[C@@H]1CCCN(c2ncnc3[nH]ccc23)C1
VALUE_OBSERVED: 1 to 10 µM
--
COMPOUND: CN(C)Cc1cccc(NCC(=O)NC2CCCN(c3ncnc4[nH]ccc34)C2)c1 (stereo not drawn)
VALUE_OBSERVED: > 10 µM
--
COMPOUND: O=C(CNc1cccc2c1CCCC2)N[C@@H]1CCCN(c2ncnc3[nH]ccc23)C1
VALUE_OBSERVED: < 0.1 µM
--
COMPOUND: N#Cc1ccc(NCC(=O)NC2CCCN(c3ncnc4[nH]ccc34)C2)cc1C(F)(F)F (stereo not drawn)
VALUE_OBSERVED: > 10 µM
--
COMPOUND: CNC(=O)c1cnc(NC2CCCN(c3ncnc4[nH]ccc34)C2)s1 (stereo not drawn)
VALUE_OBSERVED: > 10 µM
--
COMPOUND: Cc1ccc(C)n1-c1cccc(NCC(=O)N[C@@H]2CCCN(c3ncnc4[nH]ccc34)C2)c1
VALUE_OBSERVED: 0.1 to 0.999 µM
--
COMPOUND: CC[C@@H](Nc1cccc(Cl)c1)C(=O)N[C@@H]1CCCN(c2ncnc3[nH]ncc23)C1
VALUE_OBSERVED: < 0.1 µM
--
COMPOUND: O=C(CNc1cc(F)c(F)c(F)c1)N[C@@H]1CCCN(c2ncnc3[nH]ccc23)C1
VALUE_OBSERVED: 0.1 to 0.999 µM
